Test: viability loss of HPDE-C7K cells – cell-based, fluorescence, HTS, primary screen (AID 431);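 further: 0% = DMSO solvent wells and 100% = doxorubicin-treated wells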
Conditions: HPDE-C7K KRASV12 cells, Alamar Blue viability, 48 h; at 10 µM; stronger effect = higher value
About 1,100 (1.7%) of roughly 63,000 compounds were called active. This excerpt belongs to a sample that is enriched for actives. Measured potencies and affinities stand elsewhere.
The compounds listed here are annotated with their cytotoxicity.
reported property: cytotoxicity

compound | reported property | reported
CC(=O)c1c(C)[nH]c(C(=O)N2CCCCCC2)c1C | cytotoxicity | -5.8% (inactive)
O=C(Nc1ccc2c(c1)OCCO2)C1CCN(S(=O)(=O)c2cccs2)CC1 | cytotoxicity | -8.1% (inactive)
COc1ccc(C(=O)n2c(-c3ccco3)nc3ccccc32)cc1 | cytotoxicity | 58.3% (active)
c1csc(-c2nn3c(C4COc5ccccc5O4)nnc3s2)c1 (stereo unspecified) | cytotoxicity | -1.6% (inactive)
O=C(Nc1ccc2oc(-c3ccccc3F)nc2c1)c1ccc2c(c1)OCCO2 | cytotoxicity | 83.6% (active)
O=C(Nc1ccc2oc(-c3ccccc3)nc2c1)c1ccc2c(c1)OCCO2 | cytotoxicity | 37% (inactive)
